Below: a set of entries, each annotated with reported melting point.
Where a name gives a salt, the structure may show the parent alone.
reported.property: melting point

* CC(C)Oc1c(-c2ccc(C(C)(C)N)cn2)ccc2[nH]ncc12 (as salt: hydrochloride) [Compound 5-50, trihydrochloride] | 211 to 213 °C (dec.)
* CCC(N)(CC)c1ccc(-c2ccc3[nH]ncc3c2N)cc1 (as salt: hydrochloride) [Compound 5-22, trihydrochloride] | 197 to 199 °C (dec.)
* CCCOc1c(-c2ccc(C(C)(C)N)cn2)ccc2[nH]ncc12 (as salt: hydrochloride) [Compound 5-58, trihydrochloride] | 194 to 198 °C (dec.)
* CC(C)(N)c1ccc(-c2ccc3[nH]ncc3c2C#N)cc1 (as salt: hydrochloride) [Compound 5-36, monohydrochloride] | 270 to 272 °C
* COC(=O)c1n[nH]c2ccc(-c3ccc(C(C)(C)N)cc3)cc12 (as salt: hydrochloride) [Compound 5-8, dihydrochloride] | 264 to 267 °C (dec.)
* CC(C)(N)c1ccc(-c2ccc3[nH]nc(C(=O)O)c3c2)cc1 (as salt: hydrochloride) [Compound 5-9, monohydrochloride] | 274 to 280 °C (dec.)
* CCCOc1c(-c2ccc(C(C)(C)N)cc2)ccc2[nH]ncc12 (as salt: hydrochloride) [Compound 5-52, dihydrochloride] | 237 to 243 °C (dec.)
* CC(C)(N)c1ccc(-c2ccc3[nH]ncc3c2-c2cn[nH]c2)cc1 (as salt: hydrochloride) [Compound 5-64, trihydrochloride] | 259 to 267 °C (dec.)
* CNc1c(-c2ccc(C(C)(C)N)cc2)ccc2[nH]ncc12 (as salt: hydrochloride) [Compound 5-7, trihydrochloride] | 202 to 206 °C (dec.)
* CCC(N)(CC)c1ccc(-c2ccc3[nH]ncc3c2OC(F)F)cc1 (as salt: hydrochloride) [Compound 5-72, dihydrochloride] | 234 to 237 °C
* CC(C)(N)c1ccc(-c2ccc3[nH]nc(N)c3c2)cc1 (as salt: hydrochloride) [Compound 5-11, trihydrochloride] | 220 to 222 °C (dec.)
* CCc1c(-c2ccc(C(C)(C)N)cn2)ccc2[nH]ncc12 (as salt: hydrochloride) [Compound 5-28, trihydrochloride] | 247 to 255 °C (dec.)
